Species on record: Rattus norvegicus
Test: Open TG-GATES - Regimen: Daily Repeat
Assay type: toxicity, organism-based, Sprague-Dawley
Design: regimen Daily Repeat, gender Male, age 6 weeks
Settings: in vivo, po, 0 mg/kg, […], tissue Kidney, route gavage, dose level Control, time 28 day
Measured KIDNEY_L of individual entries
Answer format: numeric, g implied, no suffix.

# count of solved cases: 4
compound | valueUnit | measValue
CC(S)C(=O)NCC(=O)O (configuration not stated) | g | 1.3
O=C(O)c1ccccc1Nc1ccccc1 | g | 1.5
CC(=O)[C@@]1(O)CC[C@H]2[C@@H]3C=C(Cl)C4=CC(=O)CC[C@]4(C)[C@H]3CC[C@@]21C | g | 1.4
COc1ccc([C@@H]2Sc3ccccc3N(CCN(C)C)C(=O)[C@@H]2OC(C)=O)cc1 | g | 1.5

(Q) Report KIDNEY_L for Nc1ccc(Cc2ccc(N)cc2)cc1 please.
(A) 1.5

(Q) Report KIDNEY_L for O=c1ccc2ccccc2o1 please.
(A) 1.4

(Q) Report KIDNEY_L for CCO please.
(A) 1.3

====

Organism: Rattus norvegicus
Assay: Open TG-GATES - Regimen: Single
Assay type: toxicity, organism-based, Sprague-Dawley
Set-up: regimen Single, gender Male, age 6 weeks
Conditions: in vivo, po, 0 mg/kg, 3 h, tissue Blood, route gavage, dose level Control
readoutType: Eos
Be sure to follow the number with its unit.

# count of solved cases: 2
molecule | measValue
C=C[C@H]1C[N@@]2CC[C@H]1C[C@@H]2[C@@H](O)c1ccnc2ccc(OC)cc12 | 0.8%
CCO | 1%

(Q) Report Eos for CCN(CC)C(=S)SSC(=S)N(CC)CC please.
(A) 0.6%

====

Measured WBC of individual entries
Species on record: Rattus norvegicus
Assay: Open TG-GATES - Regimen: Daily Repeat
Type: toxicity, organism-based, Sprague-Dawley
Parameters: regimen Daily Repeat, gender Male, age 6 weeks
Settings: in vivo, po, 0 mg/kg, […], tissue Blood, route gavage, dose level Control, time 14 day
Answer format: numeric, x10_2/uL implied, no suffix.

# count of solved cases: 3
molecule | measValue
CCN(CC)C(=S)SSC(=S)N(CC)CC | 133.7
Nc1ccc(Cc2ccc(N)cc2)cc1 | 97.7
CC(S)C(=O)NCC(=O)O (stereo not drawn) [TIOPRONIN] | 128.8

(Q) Report WBC for CCCCC1C(=O)N(c2ccccc2)N(c2ccccc2)C1=O [PHENYLBUTAZONE] please.
(A) 131.9

====

Species on record: Rattus norvegicus
Test: Open TG-GATES - Regimen: Daily Repeat
Format: toxicity, organism-based, Sprague-Dawley
Parameters: regimen Daily Repeat, gender Male, age 6 weeks
Settings: in vivo, po, 1000 mg/kg, 72 h, tissue Blood, route gavage, dose level High, time 3 day
Measured Ret of individual entries
Answer format: numeric, % implied, no suffix.

compound | readoutType | valueUnit | measValue
CC(S)C(=O)NCC(=O)O (stereo not drawn) | Ret | % | 6.9
CC(=O)[C@@]1(O)CC[C@H]2[C@@H]3C=C(Cl)C4=CC(=O)CC[C@]4(C)[C@H]3CC[C@@]21C | Ret | % | 6.9

(Q) Report Ret for CCCCNC(=O)NS(=O)(=O)c1ccc(C)cc1 [TOLBUTAMIDE] please.
(A) 4.2

====

Measured TC of individual entries
Species on record: Rattus norvegicus
Assay: Open TG-GATES - Regimen: Daily Repeat
Assay type: toxicity, organism-based, Sprague-Dawley
Set-up: regimen Daily Repeat, gender Male, age 6 weeks
Conditions: in vivo, po, 0 mg/kg, […], tissue Plasma, route gavage, dose level Control, time 14 day
Answer format: numeric, mg/dL implied, no suffix.

(Q) Report TC for NS(=O)(=O)c1cc(C(=O)O)c(NCc2ccco2)cc1Cl [FUROSEMIDE] please.
(A) 69.8

(Q) Report TC for CC(=O)[C@@]1(O)CC[C@H]2[C@@H]3C=C(Cl)C4=CC(=O)CC[C@]4(C)[C@H]3CC[C@@]21C [CHLORMADINONE] please.
(A) 69.6

(Q) Report TC for O=C(O)c1ccccc1Nc1ccccc1 [FENAMIC ACID] please.
(A) 68.6

====

Organism: Rattus norvegicus
Test: Open TG-GATES - Regimen: Single
Format: toxicity, organism-based, Sprague-Dawley
Set-up: regimen Single, gender Male, age 6 weeks
Details: in vivo, po, 0 mg/kg, 9 h, tissue Blood, route gavage, dose level Control
Measured MCH of individual entries

# count of solved cases: 5
molecule | MCH
NS(=O)(=O)c1cc(C(=O)O)c(NCc2ccco2)cc1Cl [FUROSEMIDE] | 20.7 pg
CN(C/C=C/C#CC(C)(C)C)Cc1cccc2ccccc12 | 20.9 pg
CC(S)C(=O)NCC(=O)O (stereo unspecified) | 19.9 pg
CC(=O)[C@@]1(O)CC[C@H]2[C@@H]3C=C(Cl)C4=CC(=O)CC[C@]4(C)[C@H]3CC[C@@]21C | 20.5 pg
CN(C)CCCN1c2ccccc2Sc2ccc(Cl)cc21 | 21.7 pg

(Q) Report MCH for O=C(O)c1ccccc1Nc1ccccc1 please.
(A) 20.5 pg

====

Organism: Rattus norvegicus
Experiment: Open TG-GATES - Regimen: Single
Type: toxicity, organism-based, Sprague-Dawley
Set-up: regimen Single, gender Male, age 6 weeks
Conditions: in vivo, po, 0 mg/kg, 3 h, tissue Blood, route gavage, dose level Control
Measured MCV of individual entries
Be sure to follow the number with its unit.

# count of solved cases: 3
molecule | MCV
CC(=O)[C@@]1(O)CC[C@H]2[C@@H]3C=C(Cl)C4=CC(=O)CC[C@]4(C)[C@H]3CC[C@@]21C | 63.1 fL
CC(S)C(=O)NCC(=O)O (centres undefined) | 62.3 fL
CN(C)CCCN1c2ccccc2Sc2ccc(Cl)cc21 | 62.7 fL

Okay, now this molecule:
(Q) Report MCV for O=C(O)c1ccccc1Nc1ccccc1 please.
(A) 63.1 fL

====

Measured TERMINAL_BW of individual entries
Organism: Rattus norvegicus
Experiment: Open TG-GATES - Regimen: Single
Format: toxicity, organism-based, Sprague-Dawley
Design: regimen Single, gender Male, age 6 weeks
Settings: in vivo, po, 0 mg/kg, 3 h, route gavage, dose level Control
Answer format: numeric, g implied, no suffix.

# count of solved cases: 8
molecule | readoutType | valueUnit | measValue
NS(=O)(=O)c1cc(C(=O)O)c(NCc2ccco2)cc1Cl [FUROSEMIDE] | TERMINAL_BW | g | 205.5
O=c1ccc2ccccc2o1 | TERMINAL_BW | g | 182.8
CN(C)CCCN1c2ccccc2Sc2ccc(Cl)cc21 | TERMINAL_BW | g | 223.8
COc1cc2ncnc(Nc3ccc(F)c(Cl)c3)c2cc1OCCCN1CCOCC1 | TERMINAL_BW | g | 216
COc1ccc([C@@H]2Sc3ccccc3N(CCN(C)C)C(=O)[C@@H]2OC(C)=O)cc1 | TERMINAL_BW | g | 181.4
CC(S)C(=O)NCC(=O)O (stereo not given) | TERMINAL_BW | g | 208.8
CC(=O)[C@@]1(O)CC[C@H]2[C@@H]3C=C(Cl)C4=CC(=O)CC[C@]4(C)[C@H]3CC[C@@]21C | TERMINAL_BW | g | 219.1
C=C[C@H]1C[N@@]2CC[C@H]1C[C@@H]2[C@@H](O)c1ccnc2ccc(OC)cc12 | TERMINAL_BW | g | 212.2

(Q) Report TERMINAL_BW for O=C(O)c1ccccc1Nc1ccccc1 please.
(A) 209.2

(Q) Report TERMINAL_BW for CN(C/C=C/C#CC(C)(C)C)Cc1cccc2ccccc12 please.
(A) 225.4

====

Organism: Rattus norvegicus
Experiment: Open TG-GATES - Regimen: Single
Type: toxicity, organism-based, Sprague-Dawley
Set-up: regimen Single, gender Male, age 6 weeks
Conditions: in vivo, po, 0 mg/kg, 24 h, tissue Plasma, route gavage, dose level Control
Measured CRE of individual entries
Answer format: numeric, mg/dL implied, no suffix.

# count of solved cases: 4
compound | valueUnit | CRE
CCCCNC(=O)NS(=O)(=O)c1ccc(C)cc1 [TOLBUTAMIDE] | mg/dL | 0.2
CN(CCOc1ccc(CC2SC(=O)NC2=O)cc1)c1ccccn1.O=C(O)/C=C\C(=O)O (stereo unspecified) [ROSIGLITAZONE MALEATE] | mg/dL | 0.4
CN(C/C=C/C#CC(C)(C)C)Cc1cccc2ccccc12 | mg/dL | 0.4
O=C(O)c1ccccc1Nc1ccccc1 | mg/dL | 0.2

(Q) Report CRE for COc1cc2ncnc(Nc3ccc(F)c(Cl)c3)c2cc1OCCCN1CCOCC1 please.
(A) 0.2

(Q) Report CRE for Nc1ccc(Cc2ccc(N)cc2)cc1 please.
(A) 0.2

(Q) Report CRE for CC(S)C(=O)NCC(=O)O (stereo unspecified) please.
(A) 0.2

(Q) Report CRE for CCO please.
(A) 0.5
